B1: Caulobacter ParB omega fusion; a variant is named by its letters at X, in order, B8GW30 (parent)
chain: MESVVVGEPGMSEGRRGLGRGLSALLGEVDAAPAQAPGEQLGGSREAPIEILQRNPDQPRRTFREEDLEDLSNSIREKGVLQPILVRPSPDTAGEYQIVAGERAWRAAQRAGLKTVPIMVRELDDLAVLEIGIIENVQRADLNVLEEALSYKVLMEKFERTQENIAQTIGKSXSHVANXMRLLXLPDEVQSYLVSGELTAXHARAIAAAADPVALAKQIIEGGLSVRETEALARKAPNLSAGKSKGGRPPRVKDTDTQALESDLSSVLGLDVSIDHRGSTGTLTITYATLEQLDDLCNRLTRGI

Variants of: B1
Method summary: one-hybrid fitness for binding NBS DNA (the Noc-binding site; scaled: cognate 1, non-cognate 0); higher = stronger binding
Measurement parameters: with NBS DNA site
In all, about 81,000 sequences were measured (“one-hybrid fitness for binding NBS DNA”: median about -0.1, highest 2% from about 0.36 on). The sample holds the highest values, similar sequences and a random draw of the others, so the mix is not that of the screen.
Property measured: one-hybrid fitness for binding NBS DNA
The answer should be a number; do not append a unit.

Example entries and their recorded answers appear below.
- Variant notation: "RSTS"
  one-hybrid fitness for binding NBS DNA: 0.433
- Variant notation: "QSRA"
  one-hybrid fitness for binding NBS DNA: 0.516
- Variant notation: "QSYA"
  one-hybrid fitness for binding NBS DNA: 0.208
- Variant notation: "RSWT"
  one-hybrid fitness for binding NBS DNA: 0.215
- Variant notation: "QIRA"
  one-hybrid fitness for binding NBS DNA: 0.386

# input Write down one-hybrid fitness for binding NBS DNA measured for item `RITS`
# output 0.384

# input Write down one-hybrid fitness for binding NBS DNA measured for item `RKTS`
# output 0.583

# input Write down one-hybrid fitness for binding NBS DNA measured for item `RKHT`
# output 0.645

# input Write down one-hybrid fitness for binding NBS DNA measured for item `QKYA`
# output 0.249
